Collected Emax values appear next to each entry.
molecular target: KCNQ2/3 channels (Homo sapiens, UniProt O43525+O43526); construct: expressed in transfected cells; assay: Fluorescence assay using a voltage sensitive dye (fluorimetry); assay type: cell-based; details: CHO-K1 cells expressing KCNQ2/3 channels; retigabine 50 μM = 100%; read-out: Fluorimetry % efficacy (retigabine 50 μM = 100%)
readout-type: Emax (%)

CCC(CNC(=O)c1cccnc1SCCC(F)(F)c1ccc(F)cc1)OC (stereo not shown) :: 122
O=C(NCC1C2CCC1CC2)c1cccnc1SCCCc1ccc(F)cc1 (stereo not shown) :: 260
Cc1ccc(CCNC(=O)c2cccnc2SCCCc2ccc(F)cc2)cc1 :: 37
O=C(NCc1nnco1)c1cccnc1SCCCc1ccc(F)cc1 :: 30
CC(CSc1ncccc1C(=O)NCc1cccs1)Sc1ccc(F)cc1 (stereo not shown) :: 171
CC(C)(C)CCNC(=O)c1cccnc1SC1CCCC1Cc1ccccc1 (stereo not shown) :: 159
O=C(NCc1cccc(-n2cccn2)c1)c1cccnc1SCCCc1ccc(F)cc1 :: 88
CC(CCc1ccccc1)Sc1ncccc1C(=O)NCc1cccs1 (stereo not shown) :: 166
O=C(NCC1CCCCC1)c1cccnc1CCCCc1ccccc1 :: 157
O=C(NCC1C2CCC1CC2)c1cccnc1SCCC(F)(F)c1ccc(F)cc1 (stereo not shown) :: 287
CC(C)CCNC(=O)c1cccnc1SC(C)CCc1cccc(F)c1 (stereo not shown) :: 235
COC(C)CCNC(=O)c1cccnc1SCCC(F)(F)c1ccc(F)cc1 (stereo not shown) :: 206
CC(CCc1ccccc1)Sc1ncccc1C(=O)NCC1CC2CCC1C2 (stereo not shown) :: 290
O=C(NCc1cccs1)c1cccnc1SCCCc1cccc(C(F)(F)F)c1 :: 160
Cc1ccc(CNC(=O)c2cccnc2SCCC(F)(F)c2ccc(F)cc2)o1 :: 202
CC(CCc1ccc(F)cc1)Sc1ncccc1C(=O)NCC1CC2CCC1C2 (stereo not shown) :: 260
COc1ccc(CNC(=O)c2cccnc2SCCCc2ccc(F)cc2)cc1 :: 83
O=C(NCc1ccccc1F)c1cccnc1SCCCc1ccc(F)cc1 :: 72
O=C(NCc1ccco1)c1cccnc1SCCC(F)(F)c1ccc(F)cc1 :: 214

* * *

Collected pEC50 values appear next to each entry.
molecular target: KCNQ2/3 channels (Homo sapiens, UniProt O43525+O43526); assay: Fluorescence assay using a voltage sensitive dye (fluorimetry); conditions: CHO-K1 cells expressing KCNQ2/3 channels, agonistic activity
pEC50: −log10 of the molar value.
readout-type: pEC50

CC(CCSc1ncccc1C(=O)NCC1CC2CCC1C2)c1ccc(F)cc1 (centres unmarked) [compound 91] :: 6.74
O=C(NCC1CC2CCC1C2)c1cccnc1SCCCc1cccc2ccccc12 (centres unmarked) [compound 52] :: 6.30
O=C(NCC1CCCO1)c1cccnc1SCCCc1ccc(F)cc1 (centres unmarked) [compound 181] :: 5.81
O=C(NCc1cccs1)c1cccnc1SCCC(F)(F)c1ccc(F)cc1 [compound 118] :: 7.43
O=C(NCCCc1ccccn1)c1cccnc1SCCCc1ccc(F)cc1 [compound 93] :: 5.55

* * *

biological target: KCNQ2/3 channels (Homo sapiens, UniProt O43525+O43526); construct: expressed in transfected cells; experiment: Fluorescence assay using a voltage sensitive dye (fluorimetry); type: cell-based; settings: CHO-K1 cells expressing KCNQ2/3 channels; retigabine 50 μM = 100%
readout-type: Fluorimetry % efficacy (retigabine 50 μM = 100%)

O=C(NCc1cccs1)c1cccnc1SCCCc1ccc(F)cc1 :: 176
O=C(O)c1cccc(CNC(=O)c2cccnc2SCCCc2ccc(F)cc2)c1 :: 25
CC(C)CCNC(=O)c1cccnc1SCCC(F)(F)c1ccc(F)cc1 :: 224
O=C(NCc1cccs1)c1ccc(N2CCCC2)nc1SCCCc1ccccc1 :: 104
O=C(NCc1ccccn1)c1cccnc1SCCCc1ccc(F)cc1 :: 175
